- measurement.protocol: Sulforhodamine B (SRB) cytotoxicity assay
- condition.parameters: human, PC3 cells, Viability, -IR, log [concentration] μM 2.69897
endpoint.label: viability at 72 h, 500 µM (%)

1. O=C(c1cc(Cc2n[nH]c(=O)c3ccccc23)ccc1F)N1CCN(C(=O)C2CC2)CC1 [Olaparib, reference compound]: 5.75

###

Examples of compounds with documented IC50 follow.
- System: A172 glioblastoma cells
- measurement.protocol: Sulforhodamine B (SRB) cytotoxicity assay
- condition.parameters: 72 h
endpoint.label: IC50 (µM)

1) NC(=O)NO [Hydroxyurea]: 381
2) [NH2][Pt]1([NH2])[O]CC(=O)[O]1: 67.6

###

- measurement.protocol: Sulforhodamine B (SRB) cytotoxicity assay
- condition.parameters: human, PC3 cells, Viability, -IR, log [concentration] μM 1.19382
endpoint.label: viability at 72 h, 15.63 µM

1. O=C(c1cc(Cc2n[nH]c(=O)c3ccccc23)ccc1F)N1CCN(C(=O)C2CC2)CC1 [Olaparib, reference compound]: 77.7%

###

- measurement.protocol: Sulforhodamine B (SRB) cytotoxicity assay
- condition.parameters: human, PC3 cells, Viability, without IR, log [concentration] μM 1.097
endpoint.label: viability at 72 h, 12.5 µM (%)

1) COc1cccc2c1C(=O)c1c(O)c3c(c(O)c1C2=O)C[C@@](O)(C(=O)CO)C[C@@H]3O[C@H]1C[C@H](N)[C@H](O)[C@H](C)O1 [Doxorubicin]: 9.95

###

- measurement.protocol: Sulforhodamine B (SRB) cytotoxicity assay
- condition.parameters: human, PC3 cells, Viability, without IR, log [concentration] μM 1.699
endpoint.label: viability at 72 h, 50 µM (%)

1. COc1cccc2c1C(=O)c1c(O)c3c(c(O)c1C2=O)C[C@@](O)(C(=O)CO)C[C@@H]3O[C@H]1C[C@H](N)[C@H](O)[C@H](C)O1: 9.95

###

- measurement.protocol: Sulforhodamine B (SRB) cytotoxicity assay
- Format: cell-based, human
- condition.parameters: human, MRC-5 cells; log [concentration] μM 1.8
Examples of molecules with documented viability at 72 h, 63.1 µM follow.
endpoint.label: viability at 72 h, 63.1 µM (%)

1. Cn1c(=S)c2[nH]c(SCCN3CCOCC3)nc2n(C)c1=O [JA2131]: 79.9
2. C[C@]1(c2nc3c(C(N)=O)cccc3[nH]2)CCCN1 [Veliparib]: 77.6

###

- measurement.protocol: Sulforhodamine B (SRB) cytotoxicity assay
- condition.parameters: human, PC3 cells, Viability, without IR, log [concentration] μM -0.613
endpoint.label: viability at 72 h, 0.244 µM (%)

1. Cn1c(=S)c2[nH]c(SCCN3CCOCC3)nc2n(C)c1=O [JA2131]: 100

###

- measurement.protocol: Sulforhodamine B (SRB) cytotoxicity assay
- condition.parameters: human, PC3 cells, Viability, +IR 7.0 Gy, log [concentration] μM 0.591732
endpoint.label: viability at 72 h, 3.91 µM (%)

1. O=C(c1cc(Cc2n[nH]c(=O)c3ccccc23)ccc1F)N1CCN(C(=O)C2CC2)CC1 [Olaparib, reference compound]: 101

###

Examples of compounds with documented inhibition at 3.125 µM follow.
- target.or.test.system: Human PARG (Homo sapiens, UniProt Q86W56)
- Construct: The human PARG (hPARG) catalytic domain (residues 389–976) was cloned in pET28a (Novagen); His-tag (N); made in house; host or cells: E. coli Rosetta
- Sequence (Q86W56 389-976): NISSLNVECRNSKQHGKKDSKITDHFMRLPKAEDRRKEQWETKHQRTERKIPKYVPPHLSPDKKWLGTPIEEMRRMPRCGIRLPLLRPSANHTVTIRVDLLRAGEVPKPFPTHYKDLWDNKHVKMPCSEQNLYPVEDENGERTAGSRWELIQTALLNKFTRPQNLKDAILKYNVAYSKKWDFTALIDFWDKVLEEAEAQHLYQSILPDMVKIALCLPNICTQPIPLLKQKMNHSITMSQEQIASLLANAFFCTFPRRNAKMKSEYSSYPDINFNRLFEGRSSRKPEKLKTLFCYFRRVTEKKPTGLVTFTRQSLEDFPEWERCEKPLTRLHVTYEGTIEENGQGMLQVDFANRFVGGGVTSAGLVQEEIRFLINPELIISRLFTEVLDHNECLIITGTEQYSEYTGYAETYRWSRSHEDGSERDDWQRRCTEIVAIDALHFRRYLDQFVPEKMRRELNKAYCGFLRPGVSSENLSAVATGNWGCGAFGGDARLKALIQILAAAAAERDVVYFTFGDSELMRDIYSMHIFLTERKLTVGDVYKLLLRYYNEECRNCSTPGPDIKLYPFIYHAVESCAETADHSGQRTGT
- measurement.protocol: Gel-based PARG activity assay
- Type: biochemical
- condition.parameters: [L] 3.125 uM
endpoint.label: inhibition at 3.125 µM (%)

1) Cn1c(=O)c2[nH]c(SCCN3CCOCC3)nc2n(C)c1=S: 81.9
2) Cn1c(=O)c2[nH]c(SCCN3CCOCC3)nc2n(C)c1=O: 25.7
3) Cn1c(=S)c2[nH]c(SCCN3CCOCC3)nc2n(C)c1=O: 84.3
4) Cn1c(=S)c2nc(SCCN3CCCC3)[nH]c2n(C)c1=O: 70.1
